Examples of compounds with documented IC50 follow.
# target: EGFR L858R/T790M/C797S mutant enzyme (Homo sapiens (Human), UniProt P00533, C797S/L858R/T790M)
# Sequence (P00533 25-1210 T790M/C797S/L858R): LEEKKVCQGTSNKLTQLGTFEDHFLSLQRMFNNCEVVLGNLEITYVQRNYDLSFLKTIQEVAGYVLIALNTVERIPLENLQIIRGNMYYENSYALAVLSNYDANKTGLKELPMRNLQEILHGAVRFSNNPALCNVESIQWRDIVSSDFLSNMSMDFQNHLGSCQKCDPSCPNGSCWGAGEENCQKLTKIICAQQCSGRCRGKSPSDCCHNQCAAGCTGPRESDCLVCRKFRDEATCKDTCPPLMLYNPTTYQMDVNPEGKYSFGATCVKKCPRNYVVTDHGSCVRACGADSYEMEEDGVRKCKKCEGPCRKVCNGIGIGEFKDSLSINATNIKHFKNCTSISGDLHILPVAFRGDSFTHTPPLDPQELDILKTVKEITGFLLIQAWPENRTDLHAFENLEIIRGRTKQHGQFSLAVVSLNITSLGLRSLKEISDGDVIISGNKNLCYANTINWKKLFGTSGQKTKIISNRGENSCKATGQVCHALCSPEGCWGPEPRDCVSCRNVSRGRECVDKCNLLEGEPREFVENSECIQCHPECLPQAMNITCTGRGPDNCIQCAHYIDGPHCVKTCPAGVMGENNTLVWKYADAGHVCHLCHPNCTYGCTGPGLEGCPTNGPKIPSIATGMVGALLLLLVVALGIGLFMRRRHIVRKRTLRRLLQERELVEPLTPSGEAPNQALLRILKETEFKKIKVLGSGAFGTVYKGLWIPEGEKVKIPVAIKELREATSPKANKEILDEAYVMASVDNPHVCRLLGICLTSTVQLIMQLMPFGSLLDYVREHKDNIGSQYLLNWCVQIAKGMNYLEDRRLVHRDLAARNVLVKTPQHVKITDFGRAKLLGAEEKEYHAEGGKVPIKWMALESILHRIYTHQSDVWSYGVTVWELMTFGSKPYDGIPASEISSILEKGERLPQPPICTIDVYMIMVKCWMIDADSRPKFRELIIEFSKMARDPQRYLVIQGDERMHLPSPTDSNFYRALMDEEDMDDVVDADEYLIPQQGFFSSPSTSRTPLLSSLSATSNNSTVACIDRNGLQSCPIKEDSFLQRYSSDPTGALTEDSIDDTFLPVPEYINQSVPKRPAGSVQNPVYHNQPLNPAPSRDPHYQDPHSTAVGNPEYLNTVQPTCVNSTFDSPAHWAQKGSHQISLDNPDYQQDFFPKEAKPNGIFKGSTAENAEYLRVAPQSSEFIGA
# protocol: EGFR mutant enzyme inhibition, HTRF system (Cisbio)
# reported_conditions: ATP 1 mM, 37° C. for 2 hours

# compound, readout_units, limit_sign, IC50
rows = [
    ("O=C1c2cc(-c3ccc(C4=CCNCC4)cc3)ccc2CN1[C@@H](c1cc2cc(F)ccc2[nH]1)c1cc(F)ccc1O", "nM", ">", 10000),
    ("O=C1c2ccccc2CN1C(c1nc2ccc(Cl)nc2[nH]1)c1ccccc1O (stereo not drawn)", "nM", ">", 10000),
    ("O=C1c2ccccc2CN1C(c1nc2ccc(Cl)cc2[nH]1)c1ccccc1O (stereo not drawn)", "nM", "=", 4400),
    ("O=C1c2ccccc2CN1[C@@H](c1cc2ccccc2[nH]1)c1cc(F)c(F)cc1O", "nM", ">", 10000),
    ("O=C1c2ccccc2CN1[C@H](c1cc2cccnc2[nH]1)c1cc(F)ccc1O", "nM", "=", 280),
    ("O=C1c2cc(-c3ccc(N4CCOCC4)cc3)ccc2CN1[C@@H](c1cc2ccccc2[nH]1)c1cc(F)ccc1O", "nM", "=", 280),
    ("O=C1c2cc(-c3ccc(N4CCOCC4)cc3)ccc2CN1C(c1nc2ccccc2[nH]1)c1cc(Cl)ccc1O (stereo not drawn)", "nM", "=", 370),
    ("O=C1c2ccccc2CN1[C@@H](c1cc2ccccc2[nH]1)c1cc(F)ccc1O", "nM", "=", 2400),
    ("O=C1c2cc(-c3ccc(-c4ccncc4)cc3)ccc2CN1[C@@H](c1cc2ccccc2[nH]1)c1cc(Cl)ccc1O", "nM", ">", 10000),
    ("O=C1c2cc(-c3ccc(N4CCC(N5CCNCC5)CC4)cc3)ccc2CN1[C@@H](c1cc2ccccc2[nH]1)c1cc(F)ccc1O", "nM", "=", 32),
    ("O=C1c2cc(-c3ccc(N4CCNCC4)cc3)ccc2CN1[C@@H](c1cc2cc(F)ccc2[nH]1)c1cc(F)ccc1O", "nM", "=", 650),
    ("O=C1c2ccccc2CN1[C@@H](c1cc2ccccc2[nH]1)c1ccccc1O", "nM", ">", 10000),
    ("O=C1c2cc(-c3ccc(N4CCNCC4)cc3)ccc2CN1C(c1nc2ccccc2[nH]1)c1cc(F)ccc1O (stereo not drawn)", "nM", "=", 99),
    ("O=C1c2cc(-c3ccc(N4CCOCC4)cc3)ccc2CN1C(c1nc2ccccc2[nH]1)c1cc(F)ccc1O (stereo not drawn)", "nM", "=", 960),
    ("CC(=O)N1CCN(c2ccc(-c3ccc4c(c3)C(=O)N([C@@H](c3cc5ccccc5[nH]3)c3cc(F)ccc3O)C4)cc2)CC1", "nM", "=", 240),
    ("O=C1c2ccccc2CN1C(c1nc2cccnc2[nH]1)c1ccccc1O (stereo not drawn)", "nM", "=", 2300),
    ("O=C1c2cc(C3=CCNCC3)ccc2CN1C(c1nc2ccccc2[nH]1)c1cc(Cl)ccc1O (stereo not drawn)", "nM", "=", 1100),
    ("CN1CCN(c2ccc(-c3ccc4c(c3)C(=O)N(C(c3nc5ccccc5[nH]3)c3cc(F)ccc3O)C4)cc2)CC1 (stereo not drawn)", "nM", "=", 130),
]
